Molecular target: human oxytocin receptor (Homo sapiens, UniProt P30559)
Construct: host or cells: CHO cells (pcDNA3.1 vector)
Experiment: Oxytocin binding in Chinese Hamster Ovary cell membranes expressing human oxytocin receptors
Details: 100 nM, CHO cell membranes, [3H]oxytocin, values without parentheses
Parameter OT % inhibition @ 100% nM: see the listing below.
Numeric only. Scale: %

Recall the recorded OT % inhibition @ 100% nM for COc1ccccc1-c1ccc(C(=O)N2Cc3ccc(C(=O)N4CC[C@@H](N(C)C)C4)n3Cc3ccccc32)cc1 [Example 279] with human oxytocin receptor (Homo sapiens, UniProt P30559) and state it.
100

Recall the recorded OT % inhibition @ 100% nM for COc1cc(-c2ccccc2C)c(Cl)cc1C(=O)N1Cc2ccc(C(=O)N3CCC[C@H]3CN3CCCC3)n2Cc2ccccc21 [Example 267] with human oxytocin receptor (Homo sapiens, UniProt P30559) and state it.
93

Recall the recorded OT % inhibition @ 100% nM for COc1cc(C(=O)N2Cc3ccc(C(=O)N4CCC[C@H]4CN4CCCC4)n3Cc3ccccc32)ccc1-n1c(C)ccc1C [Example 321] with human oxytocin receptor (Homo sapiens, UniProt P30559) and state it.
62

Recall the recorded OT % inhibition @ 100% nM for CN(C)[C@@H]1CCN(C(=O)c2ccc3n2Cc2ccccc2N(C(=O)c2ccc(-c4cccc5ccccc45)cc2Cl)C3)C1 [Example 277] with human oxytocin receptor (Homo sapiens, UniProt P30559) and state it.
41

Recall the recorded OT % inhibition @ 100% nM for COc1cc(C(=O)N2Cc3ccc(C(=O)N4CC[C@@H](N(C)C)C4)n3Cc3ccccc32)ccc1-c1ccccc1C [Example 281] with human oxytocin receptor (Homo sapiens, UniProt P30559) and state it.
93

Recall the recorded OT % inhibition @ 100% nM for O=C(c1ccc(-c2cccc3ccccc23)cc1Cl)N1Cc2ccc(C(=O)N3CCC[C@H]3CN3CCCC3)n2Cc2ccccc21 [Example 261] with human oxytocin receptor (Homo sapiens, UniProt P30559) and state it.
52

Recall the recorded OT % inhibition @ 100% nM for Cc1ccccc1-c1ccc(C(=O)N2Cc3ccc(C(=O)N4CCC[C@H]4CN4CCCC4)n3Cc3ccccc32)cc1 [Example 264] with human oxytocin receptor (Homo sapiens, UniProt P30559) and state it.
94

----------
Biological target: human vasopressin V1a receptor subtype (Homo sapiens, UniProt P37288)
Construct: host or cells: CHO cells (pZeoSV vector for the Thibonnier line)
Sequence (P37288 whole entry): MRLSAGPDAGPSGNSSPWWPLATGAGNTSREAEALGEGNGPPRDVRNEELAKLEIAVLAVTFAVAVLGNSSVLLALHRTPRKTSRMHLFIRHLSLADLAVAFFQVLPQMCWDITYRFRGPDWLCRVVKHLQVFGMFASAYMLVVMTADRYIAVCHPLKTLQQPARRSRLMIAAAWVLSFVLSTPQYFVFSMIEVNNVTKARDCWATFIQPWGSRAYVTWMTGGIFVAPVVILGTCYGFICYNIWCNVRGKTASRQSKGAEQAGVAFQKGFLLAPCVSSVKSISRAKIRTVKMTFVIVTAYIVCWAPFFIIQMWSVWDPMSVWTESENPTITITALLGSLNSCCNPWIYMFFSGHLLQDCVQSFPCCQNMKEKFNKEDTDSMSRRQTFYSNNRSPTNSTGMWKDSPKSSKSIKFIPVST
Assay: Vasopressin binding in Chinese Hamster Ovary cell membranes expressing human vasopressin V1a subtype receptors
Details: 100 nM, CHO cell membranes, [3H]Manning ligand, values without parentheses
Parameter V1a % inhibition @ 100 nM: see the listing below.
Number plus unit, in that order.

molecule="COc1ccccc1-c1ccc(C(=O)N2Cc3ccc(C(=O)N4CC[C@@H](N(C)C)C4)n3Cc3ccccc32)cc1OC [Example 282]" measuredmetric="V1a % inhibition @ 100 nM" value=1%
molecule="COc1ccccc1-c1ccc(C(=O)N2Cc3ccc(C(=O)N4CCC[C@H]4CN4CCCC4)n3Cc3ccccc32)cc1OC [Example 269]" measuredmetric="V1a % inhibition @ 100 nM" value=−1%
molecule="COc1cc(C(=O)N2Cc3ccc(C(=O)N4CC[C@@H](N(C)C)C4)n3Cc3ccccc32)ccc1-c1ccccc1C [Example 281]" measuredmetric="V1a % inhibition @ 100 nM" value=58%
molecule="COc1cccc(-c2cc(OC)c(C(=O)N3Cc4ccc(C(=O)N5CC[C@@H](N(C)C)C5)n4Cc4ccccc43)cc2Cl)c1 [Example 275]" measuredmetric="V1a % inhibition @ 100 nM" value=9%
molecule="COc1cc2c(cc1OC)N(C(=O)c1ccc(-c3ccccc3C(F)(F)F)c(C)c1)Cc1ccc(C(=O)N(C)CCCN(C)C)n1C2.Cl [Example 13]" measuredmetric="V1a % inhibition @ 100 nM" value=4%
molecule="COC(=O)c1ccc2c(c1)N(C(=O)c1ccc(-c3ccccc3C(F)(F)F)c(C)c1)Cc1cccn1C2 [Example 26]" measuredmetric="V1a % inhibition @ 100 nM" value=−3%

For the next question, use this molecule.
# lookup: V1a % inhibition @ 100 nM of COc1cc(C(=O)N2Cc3ccc(C(=O)N4CCC[C@H]4CN4CCCC4)n3Cc3ccccc32)ccc1-c1ccccc1C [Example 266]
49%

----------
Below are molecules with their pIC50 as measured on human oxytocin receptor (Homo sapiens, UniProt P30559).
// field semantics: pIC50 = negative decimal log of concentration (mol/L)

Consider the worked cases shown below.
molecule=COc1cc(-c2ccccc2C)c(Cl)cc1C(=O)N1Cc2ccc(C(=O)N3CCC(N4CCCC4)CC3)n2Cc2ccccc21 value=8.14
molecule=Cc1ccc(-c2ccc(C(=O)N3Cc4cccn4Cc4ccccc43)cc2)c2ccccc12 value=7.25
molecule="COc1cc(-c2ccccc2F)c(Cl)cc1C(=O)N1Cc2cccn2Cc2ccccc21 [Example 18B]" value=7.84
molecule=COc1cc(-c2ccccc2C(F)(F)F)c(OC)cc1C(=O)N1Cc2cccn2Cc2ccccc21 value=6.73
molecule=COc1cc(-c2ccccc2C)ccc1C(=O)N1Cc2ccc(C(=O)N(C)CCCN(C)C)n2Cc2ccccc21 value=8.46
molecule=COc1cc(-c2ccccc2C)c(Cl)cc1C(=O)N1Cc2ccc(C(=O)N3CCN(C)CC3)n2Cc2ccccc21 value=8.18

For the next question, use this molecule.
# lookup: pIC50 of C=CCN1CCN(C(=O)c2ccc3n2Cc2ccccc2N(C(=O)c2ccc(-c4ccccc4C)c(C)c2)C3)CC1
8.14

----------
Target: human oxytocin receptor (Homo sapiens)
Construct: host or cells: CHO cells (pcDNA3.1 vector)
Sequence (P30559 1-389): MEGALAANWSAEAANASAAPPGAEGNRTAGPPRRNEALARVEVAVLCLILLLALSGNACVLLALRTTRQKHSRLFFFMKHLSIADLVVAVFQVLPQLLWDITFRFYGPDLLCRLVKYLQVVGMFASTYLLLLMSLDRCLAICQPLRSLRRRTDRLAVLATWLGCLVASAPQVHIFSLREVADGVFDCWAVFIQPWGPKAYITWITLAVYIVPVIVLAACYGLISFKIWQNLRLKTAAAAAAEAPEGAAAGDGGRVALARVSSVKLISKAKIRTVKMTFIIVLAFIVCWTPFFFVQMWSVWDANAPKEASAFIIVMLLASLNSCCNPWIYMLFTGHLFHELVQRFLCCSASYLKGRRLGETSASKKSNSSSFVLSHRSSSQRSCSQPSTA
Assay: Oxytocin binding in Chinese Hamster Ovary cell membranes expressing human oxytocin receptors
Conditions: 100 nM, CHO cell membranes, [3H]oxytocin, values without parentheses, read-out: OT % inhibition @ 100% nM
Parameter inhibition at 0.1 µM: see the listing below.
Numeric only. Scale: %

Consider the worked cases shown below.
molecule=C=CCN1CCN(C(=O)c2ccc3n2Cc2ccccc2N(C(=O)c2ccc(-c4cccc5ccccc45)cc2Cl)C3)CC1 measuredmetric="inhibition at 0.1 µM" value=19
molecule="COc1cc(C(=O)N2Cc3ccc(C(=O)NCCC4CCCN4C)n3Cc3ccccc32)ccc1-c1ccccc1C (centres unmarked)" measuredmetric="inhibition at 0.1 µM" value=60
molecule=COc1cccc(-c2ccc(C(=O)N3Cc4ccc(C(=O)N5CCN(CCCN(C)C)CC5)n4Cc4ccccc43)cc2C)c1 measuredmetric="inhibition at 0.1 µM" value=77

# lookup: inhibition at 0.1 µM of Cc1ccccc1-c1ccc(C(=O)N2Cc3ccc(C(=O)N4CCN(C(C)C)CC4)n3Cc3ccccc32)cc1C
86

# lookup: inhibition at 0.1 µM of COc1cc(C(=O)N2Cc3ccc(C(=O)N4CCN(C)CC4)n3Cc3ccccc32)ccc1-c1cccc2ccccc12
67

# lookup: inhibition at 0.1 µM of COc1cc(C(=O)N2Cc3ccc(C(=O)N4CCN(CCN5CCOCC5)CC4)n3Cc3ccccc32)ccc1-n1c(C)ccc1C
32

# lookup: inhibition at 0.1 µM of COc1ccccc1-c1ccc(C(=O)N2Cc3ccc(C(=O)N[C@@H](Cc4c[nH]cn4)C(N)=O)n3Cc3ccccc32)cc1
93

# lookup: inhibition at 0.1 µM of COc1cc(C(=O)N2Cc3ccc(C(=O)N4CCCN(C)CC4)n3Cc3ccccc32)ccc1-n1c(C)ccc1C
30

----------
Target: human vasopressin V1a receptor subtype (Homo sapiens, UniProt P37288)
Construct: host or cells: CHO cells (pZeoSV vector for the Thibonnier line)
Experiment: Vasopressin binding in Chinese Hamster Ovary cell membranes expressing human vasopressin V1a subtype receptors
Conditions: 100 nM, CHO cell membranes, [3H]Manning ligand, values without parentheses
Each entry gets false (0) if its inhibition at 0.1 µM stays under 20%, and true (1) if its inhibition at 0.1 µM is 20% or above.

Illustrative cases are given below, each with its answer.
compound=COc1ccccc1-c1ccc(C(=O)N2Cc3ccc(C(=O)N4CCN(CCCN(C)C)CC4)n3Cc3ccccc32)cc1OC group="false (0)"
compound=Cc1ccccc1-c1ccc(C(=O)N2Cc3ccc(C(=O)N4CCC(N5CCCC5)CC4)n3Cc3ccccc32)cc1C group="true (1)"
compound=Cc1ccccc1-c1ccc(C(=O)N2Cc3ccc(C(=O)N4CCN(CCCN(C)C)CC4)n3Cc3ccccc32)cc1 group="false (0)"
compound=COc1cc(C(=O)N2Cc3ccc(C(=O)N4CCN(CCN5CCOCC5)CC4)n3Cc3ccccc32)ccc1-c1ccccc1C group="true (1)"

Could you verify whether the entry COc1cc(C(=O)N2Cc3ccc(C(=O)N4CCC(N5CCCC5)CC4)n3Cc3ccccc32)ccc1-c1ccccc1C shows inhibition at 0.1 µM of no less than 20%?
true (1)

Could you verify whether the entry COc1cccc(-c2ccc(C(=O)N3Cc4ccc(C(=O)N5CCCN(C)CC5)n4Cc4ccccc43)cc2OC)c1 shows inhibition at 0.1 µM of no less than 20%?
false (0)

Could you verify whether the entry Cc1ccccc1-c1ccc(C(=O)N2Cc3ccc(C(=O)NCCCN(C)C)n3Cc3ccccc32)cc1 shows inhibition at 0.1 µM of no less than 20%?
true (1)

Could you verify whether the entry C=CCN1CCN(C(=O)c2ccc3n2Cc2ccccc2N(C(=O)c2ccc(-c4ccccc4C)cc2)C3)CC1 shows inhibition at 0.1 µM of no less than 20%?
false (0)

Could you verify whether the entry Cc1cc(C(=O)N2Cc3ccc(C(=O)NCCCn4ccnc4)n3Cc3ccccc32)ccc1-c1ccccc1C(F)(F)F shows inhibition at 0.1 µM of no less than 20%?
false (0)

Could you verify whether the entry COc1cccc(-c2ccc(C(=O)N3Cc4ccc(C(=O)n5ccnc5)n4Cc4ccccc43)cc2C)c1 shows inhibition at 0.1 µM of no less than 20%?
false (0)

Could you verify whether the entry COc1ccccc1-c1ccc(C(=O)N2Cc3ccc(C(=O)n4ccnc4)n3Cc3ccccc32)cc1C shows inhibition at 0.1 µM of no less than 20%?
false (0)

Could you verify whether the entry COc1ccccc1-c1ccc(C(=O)N2Cc3ccc(C(=O)N4CCN(C)CC4)n3Cc3ccccc32)cc1C shows inhibition at 0.1 µM of no less than 20%?
false (0)

Entry source: patent US7109193B2
